// compounds with pKi on the protein given by its sequence, multi-source literature
Sequence of the target: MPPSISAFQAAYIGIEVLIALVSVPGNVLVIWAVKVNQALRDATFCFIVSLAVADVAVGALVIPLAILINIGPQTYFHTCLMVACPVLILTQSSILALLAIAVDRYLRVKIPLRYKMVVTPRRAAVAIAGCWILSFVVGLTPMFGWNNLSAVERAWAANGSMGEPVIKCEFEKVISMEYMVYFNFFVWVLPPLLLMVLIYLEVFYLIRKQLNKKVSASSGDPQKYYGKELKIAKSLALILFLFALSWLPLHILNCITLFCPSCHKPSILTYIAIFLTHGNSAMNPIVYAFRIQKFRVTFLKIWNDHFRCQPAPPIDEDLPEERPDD
Note: pKi values are expressed as the negative base-10 logarithm of concentration in M.

Sample records with pKi:
>>> df
                                   compound  experimental_endpoint  recorded_result
0  O=C(Nc1nc2ccccc2n2nc(-c3ccco3)nc12)c1ccco1                    pKi             6.70
1  CCCN(CCC)c1c(-c2ccccc2)c2cc(Cl)ccc2[nH]c1=O                    pKi             4.59
2  CCNC(=O)[C@H]1OC(n2cnc3c(NC(=O)Nc4ccc(S(=O)(=O)N5CC=CC5)cc4)ncnc32)C(O)C1O (single isomer, unassigned)                    pKi             6.60

Quick note, pKi for `COCCOc1ccc(N2CCN(CCn3c(=O)n(C)c4c3nc(N)n3nc(-c5ccco5)nc43)CC2)cc1` landed at 5.77

The recorded pKi for entry `Nc1nc(NCCc2cccc(O)c2)nc2sc(-c3ccco3)nc12` equals 9.64

For record `CCCn1ncc2nc(N)n3nc(-c4ccco4)nc3c21` the listed pKi is 7.85

Recorded result, `COc1ccc(-c2nc3c([nH]2)c(=O)n(C)c(=O)n3C)cc1OCCN(C)C` , pKi: 4.87

pKi reading for `CCCn1c(=O)c2[nH]c(-c3cnn(Cc4ccccc4C)c3)nc2n(CCC)c1=O` : 7.66

So for `CCOC(=O)c1cnc(NC2CC2)n2nc(-c3ccco3)nc12` , the logged pKi turned out to be 7.22

GET /value?item= `Cc1noc(-c2sc(NC(=O)CC(C)C)nc2-c2ccccc2)n1` &field=pKi returns 7.57

The reported value for `OC[C@@]12C[C@@H]1[C@@H](n1cnc3c(NC(C4CCC4)C4CCC4)nc(I)nc31)[C@H](O)[C@@H]2O` in terms of pKi is 6.69

Sure, the documented pKi for `CNc1nc(-n2cc(CCO)nn2)nc2c1ncn2[C@@H]1O[C@H](CO)[C@@H](O)[C@H]1O` is 5.90
